# METHOD_SUMMARY: gradient 5% acetonitrile 3 min, to 50% in 2 min, to 85% in 15 min, held 3 min, 100 µL/min
# REPORTED_CONDITIONS: column: Zorbax Extend-C18 2.1 x 50 mm; eluents: water / acetonitrile, 0.1% formic acid
METRIC_NAME: RP-LC retention time (s)
Return type: number; implicit unit s.

Task: # lookup: RP-LC retention time of "O=C(Nc1ccc(N2CCN(C3CCCCC3)C2=O)nc1)c1cc(F)cc(F)c1"
Result: 1020

Task: Look up RP-LC retention time: "COc1ccccc1CN1C[C@@H]2C(=O)N(CCCN3CCCC3=O)C(=O)[C@@H]2C1"
Result: 586

Task: RP-LC retention time lookup needed for "CCSc1nc2ccc(NS(=O)(=O)c3cccc4nsnc34)cc2s1" , thanks.
Result: 977

Task: Dear colleague, I am looking for the recorded RP-LC retention time of the following molecule: "Cc1oc(-c2ccccc2)nc1Cn1ccn2nc(-c3ccc(F)cc3)cc2c1=O"
Result: 1100

Task: What RP-LC retention time value was documented for this molecule, "Nc1c(C(=O)Nc2cc(F)ccc2F)nnn1-c1ccccc1" ?
Result: 989

Task: Which RP-LC retention time value is on record for CCC(C)CC(=O)N1CCCN(C2=NS(=O)(=O)C(c3ccc(C)cc3)=C2C)CC1 (stereo not drawn) ?
Result: 900

Task: GET /values?readout=RP-LC retention time&item= "COc1ccc(CNC(=O)Nc2ccc(-c3nc(-c4cc(C)ccc4C)co3)cc2)cc1"
Result: 1200

Task: What measured RP-LC retention time goes with "CCC(C)(C)NC(=O)CCNc1c(-c2ccc(F)cc2)nc2cnccn12" ?
Result: 754
